B1: GLT8D2 (parent)
chain: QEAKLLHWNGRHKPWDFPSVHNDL

# Variants of: B1
# Measurement description: protein stability index of a GFP-peptide fusion (GPS, HEK-293T) (PSI 1-6); higher = more stable;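 further: lentivirally expressed fusions sorted by FACS into six bins by GFP to DsRed ratio, PSI derived from sequencing read proportions per bin multiplied by bin number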
# Test conditions: c terminus: a fixed tail appended
Hi, to clarify the labels: Criterion met covers protein stability index from 3 upward, Criterion not met covers anything below 3.

| Mutation label | Assigned label |
| --- | --- |
| F17Y | Criterion not met |
| V20Y | Criterion not met |
| W8G | Criterion met |
| L24K | Criterion not met |
| L6W | Criterion not met |
| D16F | Criterion not met |
| W8F | Criterion not met |
| Q1D | Criterion met |
| K4F | Criterion not met |
| H7W | Criterion not met |
| K4G | Criterion not met |
| Q1Y | Criterion not met |
| L6P | Criterion not met |
| H7C | Criterion not met |
| W8N | Criterion met |
| V20E | Criterion met |
| D16E | Criterion not met |
| D23I | Criterion not met |
| E2P | Criterion not met |
| E2F | Criterion not met |
| H21P | Criterion not met |
| G10C | Criterion not met |
| V20G | Criterion not met |
| N9T | Criterion not met |
| E2C | Criterion not met |
| N22D | Criterion met |
| K13F | Criterion not met |
| F17G | Criterion met |
| H7V | Criterion not met |
| K13H | Criterion not met |
| A3R | Criterion not met |
| S19V | Criterion not met |
| E2L | Criterion not met |
| L6R | Criterion not met |
| P18S | Criterion not met |
| P14F | Criterion not met |
| R11Q | Criterion met |
| P14K | Criterion not met |
| G10D | Criterion not met |
| Q1K | Criterion not met |
| A3G | Criterion not met |
| D16Y | Criterion not met |
| A3E | Criterion met |
| S19M | Criterion not met |
| D23R | Criterion not met |
| N9I | Criterion not met |
| N22I | Criterion not met |
| E2N | Criterion not met |
| S19G | Criterion not met |
| D23F | Criterion not met |
| H7R | Criterion not met |
| D23M | Criterion not met |
| W15R | Criterion met |
| F17C | Criterion met |
| H12Y | Criterion not met |
| W8P | Criterion not met |
| L24R | Criterion not met |
| N22C | Criterion not met |
| H12C | Criterion not met |
| K4W | Criterion not met |
| K4M | Criterion not met |
| N22S | Criterion not met |
| D23T | Criterion not met |
| W15Q | Criterion met |
| H21A | Criterion not met |
| S19F | Criterion not met |
| F17H | Criterion met |
| W15N | Criterion met |
| N22M | Criterion not met |
| P18G | Criterion not met |
| N9H | Criterion not met |
